Test system: P. falciparum male gametocytes
Assay: P. falciparum Dual Gamete Formation Assay (PfDGFA), male readout (exflagellation)
Type: cell-based, Plasmodium falciparum NF54
Conditions: Plasmodium falciparum; PfDGFA at 2µM, 24h preincubation with gametocytes; replicate R3; read-out: % inhibition male (individual replicates) R3
assay_readout: inhibition at 2 µM

Example entries and their recorded answers appear below.
Fc1ccc2[nH]c(-c3ccc(-c4ccc(CNCCN5CCNCC5)cc4)cc3)nc2c1.O=C(O)C(F)(F)F	32.6%
COc1ccc(C[C@H](N)C(=O)N[C@H]2[C@@H](O)[C@H](n3cnc4c(N(C)C)ncnc43)O[C@@H]2CO)cc1	54%
CCc1cc2c(Sc3nnc(N)s3)ncnc2s1	87.9%
CC(C)(CN)c1nc(-c2ccc(Br)c(O)c2)c(-c2ccncc2)[nH]1.Cl	94%
Cc1sc2ncnc(Sc3nnc(N)s3)c2c1C	87%

*Q* May I ask what inhibition at 2 µM has been recorded for COc1ccc(Nc2ncc(Cl)c(Nc3cccnc3C(N)=O)n2)cc1N1CCN(C)CC1.Cl ?
*A* 73.4%

*Q* # iterate: Fc1ccc2[nH]c(-c3ccc(-c4ccc(CNCCN5CCNCC5)cc4)s3)nc2c1.O=C(O)C(F)(F)F
*A* 32.6%
